# TARGET: furin, P09958;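 further: purified furin at 1:10 enzyme:substrate in 50 mM HEPES pH 7.5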
# Sequence (P09958 whole entry): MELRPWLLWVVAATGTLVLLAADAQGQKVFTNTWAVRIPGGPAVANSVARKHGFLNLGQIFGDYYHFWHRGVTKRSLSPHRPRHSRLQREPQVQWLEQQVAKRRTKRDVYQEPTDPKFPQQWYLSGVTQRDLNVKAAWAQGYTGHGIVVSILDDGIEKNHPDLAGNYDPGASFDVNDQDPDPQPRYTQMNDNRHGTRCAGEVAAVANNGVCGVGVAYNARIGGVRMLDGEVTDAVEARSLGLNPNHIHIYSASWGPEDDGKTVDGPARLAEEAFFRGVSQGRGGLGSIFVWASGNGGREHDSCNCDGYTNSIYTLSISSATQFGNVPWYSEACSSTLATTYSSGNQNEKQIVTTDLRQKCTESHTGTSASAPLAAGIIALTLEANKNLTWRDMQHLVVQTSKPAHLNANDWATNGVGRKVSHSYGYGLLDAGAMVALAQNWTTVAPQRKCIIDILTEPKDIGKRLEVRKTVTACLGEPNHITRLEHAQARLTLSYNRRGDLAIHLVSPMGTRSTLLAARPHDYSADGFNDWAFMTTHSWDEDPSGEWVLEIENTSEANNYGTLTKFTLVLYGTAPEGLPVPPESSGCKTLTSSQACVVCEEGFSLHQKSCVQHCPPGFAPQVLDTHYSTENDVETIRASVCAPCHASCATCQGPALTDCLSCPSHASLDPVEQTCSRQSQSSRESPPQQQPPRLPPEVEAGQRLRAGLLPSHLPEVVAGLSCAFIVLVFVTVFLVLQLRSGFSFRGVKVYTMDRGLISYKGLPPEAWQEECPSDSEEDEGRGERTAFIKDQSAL
# ASSAY_OVERVIEW: furin cleavage Z-score vs untreated control; higher = more cleavage, active = 3.5 or more, inactive = 1 or less, 8 variable residues between constant flanks
# ASSAY_CONTEXT: 7.5 min
The list shows a part of the results. The hit rate among all sequences tested is not known here.
OBSERVED_PROPERTY: furin cleavage Z-score
Give bare numbers.

Some sequences with known furin cleavage Z-score results, for comparison:
{"BIOSEQUENCE": "CARRRRRPGGAGNASASA [FS-3065]", "OBS_VALUE": -0.191}
{"BIOSEQUENCE": "CARRRKDDYAAGNASASA [FS-2073]", "OBS_VALUE": 0.651}
{"BIOSEQUENCE": "CARRRRDTHFAGNASASA [FS-2785]", "OBS_VALUE": 8.52}
{"BIOSEQUENCE": "CAPVENLETTAGNASASA [HC759]", "OBS_VALUE": 0.416}
{"BIOSEQUENCE": "CARHRRILQAAGNASASA [FS-2025]", "OBS_VALUE": -0.809}
{"BIOSEQUENCE": "CARRRGDSRGAGNASASA [HC732]", "OBS_VALUE": -0.828}
{"BIOSEQUENCE": "CARIGRTARSAGNASASA [FS-559]", "OBS_VALUE": 14.2}
{"BIOSEQUENCE": "CALASRRYRGAGNASASA [FS-547]", "OBS_VALUE": -0.863}

Field: furin cleavage Z-score. Fill in for each record below.
1. CAPFVSCQRGAGNASASA [HC1164]
2. CAIIKRSAWEAGNASASA [FS-2408]
3. CASTYCSAHLAGNASASA [HC2509]
4. CASGKPAIIPAGNASASA [HC1005]
5. CALARRSRRGAGNASASA [FS-816]
6. CARRRRDLQAAGNASASA [FS-2075]
7. CARRRRDHHMAGNASASA [FS-1838]

1: 0.755; 2: -0.767; 3: -0.262; 4: -1.38; 5: 7.83; 6: 8.41; 7: 7.82
